System: U2932 TK216-resistant clone 2
protocol text: cell proliferation relative to vehicle (% of vehicle); higher = less growth inhibition
study conditions: 500 nM; 72 h
Structures can show the parent of a compound that is named as a salt.

| molecule | cell proliferation |
| --- | --- |
| S=C(NCc1ccc2c(c1)OCO2)N1CCN(c2ncnc3c2oc2ccccc23)CC1 | 109 |
| COc1ccc(F)c(F)c1C(=O)c1cnc(NC2CCN(S(C)(=O)=O)CC2)nc1N | 53.5 |
| CCc1ccc(/C=C2/SC(=S)NC2=O)cc1 | 103 |
| O=C(/C=C/c1cccc(S(=O)(=O)Nc2ccccc2)c1)NO | 48.6 |
| O=C(Nc1ccc(OC(F)(F)F)cc1)c1sccc1NCc1ccnc2ccccc12 | 101 |
| COCCOc1ccc2c(c1)ncn2-c1ccc2cccc(N3CCC(N)CC3)c2n1 | 106 |
| CO[C@H]1/C=C\C=C(/C)C(=O)NC2=CC(=O)C(NCCN(C)C)=C(C[C@@H](C)C[C@H](OC)[C@H](O)[C@@H](C)/C=C(\C)[C@@H]1OC(N)=O)C2=O [17-DMAG (Alvespimycin) HCl] | 3.06 |
| O=C1NC(=O)C(c2ccccc2[N+](=O)[O-])=C1Nc1ccc(O)c(Cl)c1 | 113 |
